tested on: U-251; experiment: Cytotoxicity against human U251 cells after 48 hrs by MTT assay; type: functional, cell-based; conditions: U-251, 48 h
pIC50: −log10 of the molar value.
Assign class by pIC50: not lower than 5 means Yes; lower than 5 means No.

query: Is pIC50 at least 5? Consider CNc1ccc(/C=C/C(=O)/C=C(O)/C=C/c2ccc(NC)c(OC)c2)cc1OC
result: No

query: Is pIC50 at least 5? Consider COc1cc(/C=C/C(=O)/C=C(O)/C=C/c2ccc(Br)c(OC)c2)ccc1Br
result: No

query: Is pIC50 at least 5? Consider COc1cc(/C=C/C(=O)/C=C(O)/C=C/c2ccc(-n3ccnc3)c(OC)c2)ccc1-n1ccnc1
result: No

query: Is pIC50 at least 5? Consider COc1cc(/C=C/C(=O)/C=C(O)/C=C/c2ccc(N)c(OC)c2)ccc1N
result: No

query: Is pIC50 at least 5? Consider COc1cc(/C=C/C(=O)/C=C(O)/C=C/c2ccc(I)c(OC)c2)ccc1I
result: No

Please turn your attention to the following entry.
query: Is pIC50 at least 5? Consider COc1cc(/C=C/C(=O)/C=C(O)/C=C/c2ccc(NC(C)=O)c(OC)c2)ccc1NC(C)=O
result: Yes

###

tested on: HeLa; experiment: Cytotoxicity against human HeLa cells after 48 hrs by MTT assay; type: functional, cell-based
pIC50: −log10 of the molar value.
# pIC50 listing for each entry below

Input CNc1ccc(/C=C/C(=O)/C=C(O)/C=C/c2ccc(NC)c(OC)c2)cc1OC . Output pIC50: < 4.00

Input COc1cc(/C=C/C(=O)/C=C(O)/C=C/c2ccc(-n3cccn3)c(OC)c2)ccc1-n1cccn1 . Output pIC50: < 4.00

Input COc1cc(/C=C/C(=O)/C=C(O)/C=C/c2ccc(-n3ccc4ccccc43)c(OC)c2)ccc1-n1ccc2ccccc21 . Output pIC50: < 4.00

Input COc1cc(/C=C/C(=O)CC(=O)/C=C/c2ccc(O)c(OC)c2)ccc1O . Output pIC50: 4.56

Input COc1cc(/C=C/C(=O)/C=C(O)/C=C/c2ccc(NC(C)=O)c(OC)c2)ccc1NC(C)=O . Output pIC50: 4.43

Input COc1cc(/C=C/C(=O)/C=C(O)/C=C/c2ccc(-n3ccnc3)c(OC)c2)ccc1-n1ccnc1 . Output pIC50: 4.34

***
Input COc1cc(/C=C/C(=O)/C=C(O)/C=C/c2ccc(N)c(OC)c2)ccc1N . Output pIC50: < 4.00

Input COc1cc(/C=C/C(=O)/C=C(O)/C=C/c2ccc(-n3cnc4ccccc43)c(OC)c2)ccc1-n1cnc2ccccc21 . Output pIC50: < 4.00

###

system: HeLa; experiment: Cytotoxicity against human HeLa cells after 48 hrs by MTT assay; type: functional, cell-based
recorded-endpoint: IC50

Sample answers from the record:
Input COc1cc(/C=C/C(=O)/C=C(O)/C=C/c2ccc(C(N)=O)c(OC)c2)ccc1C(N)=O . Output IC50: 23.8 µM

Input COc1cc(/C=C/C(=O)/C=C(O)/C=C/c2ccc(I)c(OC)c2)ccc1I . Output IC50: > 100 µM

// next item, IC50 requested
Input COc1cc(/C=C/C(=O)/C=C(O)/C=C/c2ccc(Br)c(OC)c2)ccc1Br . Output IC50: > 100 µM
